test system: MM.1S; assay: Cell viability assay (CellTiter-Meiluncell Luminescent), tumor cell proliferation, MM.1S; details: Homo sapiens, MM1.S, 96 h, read-out: inhibitory activity (IC50, nM) against tumor cells proliferation, MM.1S
assay_metric: IC50

Solved cases below.
*Q* What measured IC50 goes with O=C1CCN(N2Cc3cc(CN4CCC(N5CCc6cc(F)ccc65)CC4)ccc3C2=O)C(=O)N1 ?
*A* 500 to 1000 nM

*Q* Try this compound too: O=C1CCN(N2Cc3cc(CN4CC(N5CCc6cc(F)ccc65)C4)ccc3C2=O)C(=O)N1
*A* 100 to 300 nM

*Q* Can you check N#Cc1ccc(N2CCN(Cc3ccc(COc4cccc5c4CN(N4CCC(=O)NC4=O)C5=O)cc3)CC2)c(F)c1 next?
*A* 100 to 300 nM

*Q* Do the same for Cc1ccc(C2CCN(Cc3ccc4c(c3)CN(N3CCC(=O)NC3=O)C4=O)CC2)s1 please
*A* 500 to 1000 nM

*Q* Another: O=C1CCN(N2Cc3cc(CN4CC=C(c5ccnc(Cl)c5Cl)CC4)ccc3C2=O)C(=O)N1
*A* 300 to 500 nM

*Q* Next up: O=C1CCN(N2Cc3cc(CN4CCN(C(c5ccccc5)c5ccccn5)CC4)ccc3C2=O)C(=O)N1 (centres unmarked)
*A* 100 to 300 nM

Hi there! I need IC50 for each item below, if you can.
1. O=C1CCN(N2Cc3cc(CN4CCC(c5ccsc5)CC4)ccc3C2=O)C(=O)N1
2. O=C1CCN(N2Cc3cc(CN4C[C@@H]5C[C@H]4CN5c4cccc(Cl)c4Cl)ccc3C2=O)C(=O)N1

*A*
["500 to 1000 nM", "500 to 1000 nM"]
